assay: Lipid clearance from liver over time after human OTC mRNA LNP (LC-MS); assay type: in vivo; details: 0.25 h post-dose; IV 0.5 mg/kg human OTC mRNA LNP, male C57BL/6 mice (n = 4)
Answer each item with its documented Parent ionizable lipid remaining in liver, Average.
Numbers only, in nmol/g liver.

compound	measurement
CCCCCCCCCCC(CCCCCCC(=O)OCC(CCCCCC)CCCCCCCC)N(CCCCCCC(F)(F)C(=O)OCC(CCCCCC)CCCCCCCC)C(=O)CCCN(C)C (centres unmarked) [Compound 33]	33.97

For each listed entry, give its Parent ionizable lipid remaining in liver, Average.
1. CCCCCCCCCCN(C(=O)CCCN(C)C)C(CCCCCCCCC)CCCCCCC(F)(F)C(=O)OCCC(CCCCCC)CCCCCC (centres unmarked) [Compound 16]
2. CCCCCCCCCCON(C(=O)CCCN(C)C)C(CCCCCCCCCC)CCCCCCC(=O)OCCC(CCCCC)CCCCC (centres unmarked) [Compound 43]

result:
1: 11.11; 2: 22.97

For each listed entry, give its Parent ionizable lipid remaining in liver, Average.
1. CCCCCCCCCCC(CCCCCCC(=O)OCCC(CCCCC)CCCCC)N(CCCCCCCC(=O)OCCC(CCCCC)CCCCC)C(=O)CCCN(C)C (centres unmarked) [Compound 67]
2. CCCCC/C=C\CCCC(CCC/C=C\CCCCC)C(CCC/C=C\CCCCC)OC(=O)CCCCN(C)C (centres unmarked) [Compound 13-B43, reference compound]

result:
12.37
29.17

The reported measurements were obtained from patent US20250332112A1.
